Origin of measurements: PubChem BioAssay (Tox21)

TARGET: Nuclear receptor subfamily 1 group I member 2 (Homo sapiens) (UniProt O75469)
Sequence (O75469 whole entry, looked up): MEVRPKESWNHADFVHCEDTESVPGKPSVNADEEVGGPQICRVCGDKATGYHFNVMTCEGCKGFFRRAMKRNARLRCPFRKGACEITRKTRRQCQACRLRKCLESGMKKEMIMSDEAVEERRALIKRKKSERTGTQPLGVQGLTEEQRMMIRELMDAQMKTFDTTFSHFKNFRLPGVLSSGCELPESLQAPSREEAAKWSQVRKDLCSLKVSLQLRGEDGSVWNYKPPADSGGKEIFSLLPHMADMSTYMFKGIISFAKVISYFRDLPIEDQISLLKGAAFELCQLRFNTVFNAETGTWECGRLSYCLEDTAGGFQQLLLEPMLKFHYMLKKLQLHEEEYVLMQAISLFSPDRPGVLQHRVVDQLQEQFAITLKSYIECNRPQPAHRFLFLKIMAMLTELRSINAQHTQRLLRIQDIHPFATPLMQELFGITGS
MEASUREMENT_DESCRIPTION: Human pregnane X receptor (PXR) small molecule agonists, qHTS assay (AID 1346982); further: nearly all actives have a fitted effect of over 35% in size
ASSAY_CONTEXT: PXR-Luc HepG2, CYP3A4 luciferase reporter, 24 h; series mostly up to 92.4 µM
Inconclusive results are not listed. Calls of active or inactive are those of the source. The call rests on the fitted dose curve; in most records, active means well fitted activation curve with a large enough effect in the repeat runs; inconclusive means weak or mixed curves; inactive means no such curve, though single readings can be large or run the other way.
Give one outcome, nothing more. List: class 1 for active, class 0 for inactive

Would you please look over these solved cases?
O=C(NOCC1CC1)c1ccc(F)c(F)c1Nc1ccc(I)cc1Cl
class 0
N#CSc1ccc(N)c([N+](=O)[O-])c1
class 1
CCC(Cl)C(Cl)C(Cl)CC(Cl)C(Cl)C(C)Cl (stereo not given)
class 1
O=S1(=O)CC(Cl)(Cl)C(Cl)(Cl)C1
class 1
O=C(Nc1cccc(Cl)c1)OCC#CCCl
class 1
O=C(O)c1ccc(Cl)c(Cl)c1
class 0
NC(=O)C1(N2CCCCC2)CCN(CCCN2c3ccccc3CCc3ccc(Cl)cc32)CC1
class 1
OCCCCCCCCCCCCBr
class 0
CSc1ccc(C(=O)c2[nH]c(=O)[nH]c2C)cc1
class 0
COc1cccc2c1C(=O)c1c(O)c3c(c(O)c1C2=O)C[C@@](O)(C(=O)CO)C[C@@H]3O[C@H]1C[C@H](N)[C@H](O[C@@H]2CCCCO2)[C@H](C)O1
class 0

Tell me the recorded outcome of this test for Cc1oc(-c2ccccc2)nc1CCC(=O)c1ccc(CC2SC(=O)NC2=O)cc1 (stereo not given) .
class 0

Tell me the recorded outcome of this test for CNC(=O)c1ccccc1 .
class 0
